Known Kd of a selection of binders
Molecular target: T1, EsCas13d, nuclease-dead (Eubacterium siraeum, UniProt B0MS50, R295A;H300A;R849A;H854A)
T1 sequence: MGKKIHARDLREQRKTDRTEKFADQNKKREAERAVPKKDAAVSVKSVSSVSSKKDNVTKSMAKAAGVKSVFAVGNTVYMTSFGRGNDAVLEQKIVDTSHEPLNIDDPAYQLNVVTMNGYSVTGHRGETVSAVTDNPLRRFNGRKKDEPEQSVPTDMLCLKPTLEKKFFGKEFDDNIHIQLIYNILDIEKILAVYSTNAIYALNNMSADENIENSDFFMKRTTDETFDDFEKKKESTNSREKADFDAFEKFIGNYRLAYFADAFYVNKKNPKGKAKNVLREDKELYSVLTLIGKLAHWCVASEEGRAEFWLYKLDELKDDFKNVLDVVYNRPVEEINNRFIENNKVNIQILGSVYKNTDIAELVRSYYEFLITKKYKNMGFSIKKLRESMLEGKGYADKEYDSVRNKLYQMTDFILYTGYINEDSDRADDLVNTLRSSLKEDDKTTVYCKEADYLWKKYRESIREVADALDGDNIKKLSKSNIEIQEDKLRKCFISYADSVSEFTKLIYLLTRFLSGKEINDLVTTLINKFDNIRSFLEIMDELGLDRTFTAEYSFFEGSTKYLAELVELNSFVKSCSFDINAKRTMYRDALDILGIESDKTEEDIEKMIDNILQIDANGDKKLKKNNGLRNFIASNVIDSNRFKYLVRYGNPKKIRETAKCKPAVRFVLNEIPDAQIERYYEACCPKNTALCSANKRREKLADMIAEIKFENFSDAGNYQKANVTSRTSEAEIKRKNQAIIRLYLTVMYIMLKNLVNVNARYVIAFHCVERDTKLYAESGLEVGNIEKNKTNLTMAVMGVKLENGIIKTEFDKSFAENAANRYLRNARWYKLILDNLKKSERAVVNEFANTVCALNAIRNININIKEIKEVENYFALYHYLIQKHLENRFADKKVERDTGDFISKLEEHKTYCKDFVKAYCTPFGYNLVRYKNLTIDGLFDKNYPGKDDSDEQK
Assay: crRNA (strand 1, pre-loaded); Mg2+; 40 mM Tris-HCl pH 7.5, 150 mM NaCl, 6 mM MgCl2, 1 mM DTT, 0.1% Tween-20, 0.2 mg/ml BSA; 25 C; 10 min per concentration, then washed
Conditions: tags: His6-TwinStrep-SUMO cleaved; N-terminal SNAP kept (SNAP-Surface 488); label: 3' end held by stalled T7 RNA polymerase

target 1 insC 3' of 14,insA 3' of 6 (mixed) RNA 1: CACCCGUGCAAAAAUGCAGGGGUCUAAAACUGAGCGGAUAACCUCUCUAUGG RNA 2: GGGAAUGGAUCCACAUCUACGAAUUCGUACCAUAGAGACGGUUAUCCAGCUCACCGAGAUCGGAAGAGCACACGU
56 nM
target 3 insC 3' of 22 (mixed) RNA 1: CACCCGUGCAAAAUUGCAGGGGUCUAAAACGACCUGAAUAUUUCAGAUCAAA RNA 2: GGGAAUGGAUCCACAUCUACGAAUUCGUUUCUUGAUCUGAAAUAUUCAGGUCUGCAGAUCGGAAGAGCACACGU
21.4 nM
target 1 MT 5'PFS UUA 3'PFS AUU (mixed) RNA 1: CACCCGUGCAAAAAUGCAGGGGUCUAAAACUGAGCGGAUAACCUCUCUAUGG RNA 2: GGGAAUGGAUCCACAUCUACGAAUUCUUACCAUAGAGAGGUUAUCCGCUCAAUUAGAUCGGAAGAGCACACGU
13.2 nM

Here is another binder to look at.
What value of Kd has been recorded for this entry: target 1 MT 5'PFS AUG 3'PFS CAC (mixed) RNA 1: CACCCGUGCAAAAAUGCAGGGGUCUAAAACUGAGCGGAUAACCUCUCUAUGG RNA 2: GGGAAUGGAUCCACAUCUACGAAUUCAUGCCAUAGAGAGGUUAUCCGCUCACACAGAUCGGAAGAGCACACGU
~29.5 nM

Where do these numbers come from? They come from paper PMC10786891.
